Give inhibition for every item shown.
# experimental.system: Hexose transporter 1 (Plasmodium falciparum) (UniProt O97467)
# assay.remarks: ST_JUDE_LEISH: Cytotoxicity at 2uM final concentration against transgenic Leishmania Mexicana promastigotes LmPfHT that are glucose transport deficient and complemented with the Plasmodium falciparum hexose transporter. Activity is measured by DNA content using SYBR green in vitro
# Format: functional
Give bare numbers, in %.

Record excerpt, results attached:
NC1CCN(Cc2ccc(-c3cccc(-c4nc5ccccc5[nH]4)c3)cc2)C1 (stereo unspecified)	5.29
Cc1ncc(CN2CCC(C(=O)Nc3ccc(-c4nc5ccccc5o4)cc3)CC2)s1	-3.66
CCCCN(CCCC)CCNC(=O)c1cc(OC(F)(F)F)ccc1O	0.8
O=C(Cc1cccc2ccccc12)N1CCc2cc3nccc(N4CCN5CCC[C@H]5C4)c3cc21	7.78
COc1ccc(NC(=O)C2CCN(CCCCCNC(=O)/C=C/c3ccc(Cl)c(Cl)c3)CC2)cc1	2.22
COc1ccc(N2CCN(CCCCNC(=O)c3ccc(NC(=O)c4cc(C(F)(F)F)cc(C(F)(F)F)c4)cc3)CC2)cc1OC	2.48

# per-item lookup of inhibition; items listed below
1. c1ccc(CN2CCC(NCc3cccc(-c4cncc5ccccc45)c3)CC2)cc1
2. CNc1ccc(CNCc2ccc(-c3ccc(-c4nc5cccc(C)c5[nH]4)cc3)cc2)cc1
3. Cc1nc2ccccc2c(=O)n1NCc1ccc(Cl)c(Cl)c1
4. CCC(=O)N1CCc2cc(Br)cc(S(=O)(=O)N3CC(C)CC(C)C3)c21 (stereo unspecified)
5. O=C(NCCCCN1CCN(c2cccc3c2OCCO3)CC1)c1ccc(NC(=O)c2cc(Cl)cc(Cl)c2)cc1
6. COc1ccc(-c2ccc(CNC3Cc4ccccc4C3)cc2)cc1S(=O)(=O)NCCN1CCCC1
7. O=C(/C=C/c1ccc(Cl)c(Cl)c1)NCCCCCN1CCC(NC(=O)Nc2ccc(OC(F)F)cc2)CC1

[7.7, 15.5, -1.58, 3.54, 2.75, 3.39, -0.5]

Each compound below has a recorded value; state its inhibition.
1. N#Cc1ccc2[nH]cc(-c3cn4cc(SC5CCCC5)ccc4n3)c2c1
2. Cc1cc(CNCCCCCNCc2cccc([N+](=O)[O-])c2)ccc1O
3. CCn1c2ccccc2c2cc(Cc3cnc(N)nc3N)ccc21
4. CN(C)CC(O)C(c1ccccc1)c1ccc(Cl)cc1 (stereo unspecified)
5. CC(=O)Nc1cccc(C(=O)Nc2ccc(-c3cccc(-c4nc5cc(F)ccc5[nH]4)c3)cc2)c1
6. Cc1cc(NCCC(=O)Nc2ccccc2)nc(NCCc2ccc(F)cc2)n1
7. Cc1ccccc1CCNC(=O)c1ccc(N2CCN(c3ccncc3)CC2)nc1

1.11
1.39
8.51
1.04
4.15
3.34
1.96

---

Would you mind telling me the reported inhibition of each entry?
# experimental.system: Glucose transporter (Leishmania mexicana) (UniProt O61059)
# assay.remarks: ST_JUDE_LEISH: Cytotoxicity at 2uM final concentration against transgenic Leishmania Mexicana promastigotes LmGT2 that are glucose transport deficient and complemented with the L. Mexicana glucose transporter 2. Activity is measured by DNA content using SYBR green in vitro
# Type: functional
Answers are plain numbers, in %.

Examples from the recorded data:
CCOC(=O)CCc1cc(F)c(F)c(OC[C@H](O)CNC(C)(C)C(O)c2ccc3ccccc3c2)c1 (some centres undefined)	0.21
CCCc1cc(NCc2ccncc2)nc(Nc2ccc(F)cc2)n1	2.99
Nc1nc(Nc2cccc(O)c2)nc2ccccc12	1.22
COc1ccc2[nH]cc(C3CCN(CCCCCNC(=O)c4ccc(-c5ccccc5)cc4)CC3)c2c1	2.9
COc1ccc2nccc([C@@H](O)CN3CCC(NCc4ccc5c(c4)NC(=O)CS5)CC3)c2n1	-3.81

Each compound below has a recorded value; state its inhibition.
1. CCCC(=O)c1cnc2cc(O)ccc2c1Nc1ccccc1C
2. Cc1cc(-c2cccc(CNC3CCN(C)CC3)c2)ccc1S(=O)(=O)NCc1ccccc1
3. COc1ccc(CNCc2ccc(F)cc2)cc1-c1ccc(OC)c(S(=O)(=O)NCCN2CCCC2)c1

[0.57, 4.62, 4.28]

Give the measured inhibition of `CC(C)c1ccc(NC(=O)N[C@H]2CCN(CCCCCNC(=O)/C=C/c3ccc(Cl)c(Cl)c3)C2)cc1` .
2.9

---

Could you please report measured inhibition for the items listed next?
# experimental.system: Hexose transporter 1 (Plasmodium falciparum) (UniProt O97467)
# assay.remarks: ST_JUDE_LEISH: Cytotoxicity at 2uM final concentration against transgenic Leishmania Mexicana promastigotes LmPfHT that are glucose transport deficient and complemented with the Plasmodium falciparum hexose transporter. Activity is measured by DNA content using SYBR green in vitro
# Format: functional
Answers are plain numbers, in %.

For orientation, consider the following solved cases.
Cc1cc(C)n2nc(C(=O)Nc3cc(C(F)(F)F)ccc3N3CCOCC3)nc2n1	2.82
O=C(c1cccc(-c2ccc(-c3nc4cc(C(F)(F)F)ccc4[nH]3)cc2)c1)N1CCCCC1CN1CCC(O)C1 (stereo not given)	1.44
CC(Nc1nc(Nc2ccc(F)cc2)nc(SCC(N)=O)n1)c1ccccc1 (stereo not given)	1.3
COc1cc(NC(=O)c2cc([N+](=O)[O-])ccc2NC(=O)CNC2CCCCC2C)cc(OC)c1 (stereo not given)	2.04
COc1ccc2nccc([C@@H](O)CN3CCC(c4cc(-c5ccc(Cl)cc5)[nH]n4)CC3)c2n1	78.2

# batch size: 4; output inhibition per entry
1. CCCCNC[C@@H](O)[C@H](Cc1ccccc1)NC(=O)c1cc2c3c(c1)c(CC)cn3CCS(=O)(=O)N2C
2. CN1CCN(Cc2c(O)ccc3c(=O)c(Oc4ccc(C(C)(C)C)cc4)c(C(F)(F)F)oc23)CC1
3. COc1ccccc1NC(=O)Nc1cccc(-c2ccc(-c3nc4cccc(C)c4[nH]3)s2)c1
4. CCn1ncc2c(N3CCCC3=O)cc(C(=O)N[C@@H](Cc3ccccc3)[C@H](O)CNC(C)(C)c3cccc(C(F)(F)F)c3)cc21

[4.07, 74.1, 6.34, 0.84]

For the compound shown here, `COc1cc(CNc2ncc(-c3ccsc3)c(-c3nccs3)n2)cc(OC)c1` , give the reported inhibition.
1.49

---

# experimental.system: Glucose transporter (Leishmania mexicana) (UniProt O61059)
# assay.remarks: ST_JUDE_LEISH: Cytotoxicity at 2uM final concentration against transgenic Leishmania Mexicana promastigotes LmGT2 that are glucose transport deficient and complemented with the L. Mexicana glucose transporter 2. Activity is measured by DNA content using SYBR green in vitro
# Assay type: functional
result.type: inhibition
A complete answer gives the number followed by the unit.

Give inhibition for all molecules that follow.
1. Cc1cc(OCc2ccccc2)c(OCc2ccccc2)cc1C(O)CN(C)Cc1ccccc1 (configuration not stated)
2. O=C(/C=C/c1ccccc1Cl)Nc1ccc(Br)c(OCCN2CCC(O)(c3ccccc3)CC2)c1
3. Cc1ccc2c(=NN=Cc3cccc(F)c3)cc(C)[nH]c2c1
4. CCOCc1cnc(C)nc1NCC(=O)c1c(C)[nH]c2cc(C)ccc12
5. CCOc1ccc(/C=C/C(=O)Nc2cccc3c2CCN(C)C3)cc1
6. COc1ccc(NC(=O)[C@H](Cc2ccccc2)Nc2cc(C)nc(Nc3ccccc3)n2)cc1
7. COCCN1CCC(C(=O)NCC(C)(C)c2nc(-c3ccc(Br)c(O)c3)c(-c3ccncc3)[nH]2)CC1

["-0.1%", "-0.34%", "6.18%", "-0.44%", "6.27%", "10.4%", "7.22%"]

Would you be so kind as to report inhibition for each listed record?
1. Cc1cc2nc(-c3ccc(/C=C/C(=O)NC4CCCCC4)cc3)[nH]c2cc1C
2. CN1CCN=C1c1ccc(NC(=O)Nc2ccc(C3=NCCN3C)cc2)cc1
3. COC(=O)c1cccc(C#CCCOCCCCCCNC[C@H](O)c2cc(Cl)c(N)c(Cl)c2)c1
4. CN1CCC[C@@H](Oc2cc3c(cc2Br)CCN3C(=O)Nc2ccc(-c3ccncc3)c(Cl)c2)C1
5. COc1ccc(-c2cnc3[nH]cc(-c4ccc(CCC(=O)O)cc4)c3c2)cn1

1. 1.51%
2. 5.87%
3. 1.01%
4. 0.42%
5. 6.38%

---

# experimental.system: Glucose transporter (Leishmania mexicana)
# assay.remarks: ST_JUDE_LEISH: Cytotoxicity at 2uM final concentration against transgenic Leishmania Mexicana promastigotes LmGT2 that are glucose transport deficient and complemented with the L. Mexicana glucose transporter 2. Activity is measured by DNA content using SYBR green in vitro
# Format: functional
Exercise: state measured inhibition for each of the compounds provided.
Answers are plain numbers, in %.

// for each compound in input: emit inhibition
1. CCOc1ccc(C(=O)Nc2cc(Br)c3c(c2)CNCC3)cc1C#N
2. Oc1cc(Nc2ccnc3cc(-c4cccc(CN5CCCCC5)c4)ccc23)c(F)cc1Cl
3. CCNc1cc(C(=O)N[C@@H](Cc2ccccc2)[C@H](O)CNCCc2cc(OC)cc(OC)c2)cc(N2CCCCS2(=O)=O)c1
4. CCN(CC)CCOc1ccc(Nc2ncc3cc(-c4c(Cl)cccc4Cl)c(=O)n(C)c3n2)cc1
5. COc1ccc2nccc([C@@H](O)CN3CCC(NCc4ccc5c(c4)N(C)C(=O)CO5)CC3)c2c1
6. O=C(NC1CCCCC1)C1CCCN(C(=O)c2ccc(O)c(-c3ccc(Cl)c(Cl)c3)c2)C1 (stereo unspecified)

1: 5.78; 2: 2.54; 3: 10; 4: 17.9; 5: 0.03; 6: -0.03
